All figures here come from patent US12077503B2.

# Test system: ivy-leaved morning glory (Ipomoea hederacea)
# ASSAY_PROCEDURE: Test G Post-Emergence Protocol
# Format: in vivo
# TEST_CONTEXT: Ipomoea, post-emergence, 312 h, 62.5 g ai/ha, evaluated after 13 days, read-out: Morningglory, Ivy-leaved damage rating (100=total damage to plant; 0=no damage to plant)
MEASURED_ATTRIBUTE: pest or weed control at 62.5 g/ha (%)

COMPOUND: Cc1ncc(NC(=O)[C@@H]2C(=O)N(C)C[C@H]2c2ccc(C(F)(F)F)cc2)s1 (racemic)
UNIT_ABBREV: %
MEASURED_NUMBER: 60

COMPOUND: CN1C[C@H](c2ccc(C(F)(F)F)cc2)[C@@H](C(=O)Nc2ccc(F)c(Cl)c2)C1=O (racemic)
UNIT_ABBREV: %
MEASURED_NUMBER: 0

COMPOUND: CCc1nc(NC(=O)[C@@H]2C(=O)N(C)C[C@H]2c2ccc(C(F)(F)F)cc2)n[nH]1 (racemic)
UNIT_ABBREV: %
MEASURED_NUMBER: 0

COMPOUND: CN1C[C@@H](c2ccc(C(F)(F)F)cc2)[C@H](C(=O)Nc2cncnc2)C1=O (racemic)
UNIT_ABBREV: %
MEASURED_NUMBER: 10
